Biological target: CREB1 (Homo sapiens, UniProt P16220)
Construct: made in house
Sequence (P16220 269-327 limits assumed): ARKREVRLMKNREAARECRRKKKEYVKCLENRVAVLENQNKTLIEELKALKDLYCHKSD
Experiment: Direct-binding FRET assay
Details: 37°C; C-terminal rhodamine design; repeat 1; read-out: Kd
Procedure: The direct binding assay was performed manually in 384-well plates and is similar to a previously described assay. Wells were filled with 20 μL of 1 mM TCEP-HCl. […] Briefly, the Kd of the designed peptide homodimer was experimentally determined and used with previously determined target homodimer Kd values to determine the heterodimer Kd. […] A minimum 15% change in the donor fluorescence upon titrating the acceptor peptide from 0 to 1000 nM was required for a fit to be attempted. […]
Where no end group is shown, it is not given here.
METRIC NAME: Kd

Record for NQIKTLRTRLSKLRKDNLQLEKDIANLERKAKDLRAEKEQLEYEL [ATF4-d1] under target or system CREB1 (Homo sapiens, UniProt P16220): Kd reported as > 5 µM

These measurements were taken from paper PMC4335062.
